A collection of sequences and their measured apparent KD of MS2 coat protein
System: MS2 coat protein
Assay: apparent KD of MS2 coat protein; designed switch direction (-1 OFF switch, 1 ON switch): 1; higher = weaker reporter binding
Test Parameters: Eterna round: R95; input ligand: microRNA oligo, concentration not stated
Entry rule: numbers only, all in µM.

Below: 2 sequences and their reported apparent KD of MS2 coat protein.
GUAAAACAUGAGGAUCACCCAUGUAAUAAUAUGGGAGGAUAUCAGAAUGUAUGUAUGUAAUGAGAAGGCCUAAAUU [Mat - Same State 1 - Mod of Eli - D75] (puzzle: Same State 1)	0.61
AGUCCAGCCUGAGCUGGACAAAAGCAUGUACAUGAGGAUCACCCAUGUUCAUGUACAAGCUUUUUGCUCGUCUUACA [salish99_208a_r3_076] (puzzle: Sensor for hsa-mir-208a)	0.0144

Could you now look at the following sequence, please?
Ask | Which apparent KD of MS2 coat protein value belongs to AGGUGGUGUGGAAAGGAUAUACGGUUGAGGACAUGAGGAUCACCCAUGUGGUAGAGGACGUGAGUGUAGAAGGUUCGGGAUUGGU [JR_SS@_Sub023] (puzzle: Same State 2) ?
Reply | 0.0485

The values you see were collected from the supplement of paper PMC9170038.
